Give Percentage cytotoxicity for every item shown.
# Test system: HeP2 (laryngeal)
# assay.notes: MTT cytotoxicity assay, 48 hours (Example 14)
# Type: cell-based
# reported.conditions: HeP2, 10 nM
Non-standard residues stand in square brackets, D forms with d. Residues, ends and D or L forms follow the SMILES beside them. *: point of attachment. Octanoyl = CCCCCCCC(=O)*; Ac5c = NC1(C(=O)O)CCCC1; Deg = CCC(N)(CC)C(=O)O; Aib = CC(C)(N)C(=O)O; Butyryl = CCCC(=O)*
Reply with just the number (in %).

-- ask # lookup: Percentage cytotoxicity of CCCC(=O)N[C@H](Cc1ccccc1)C(=O)N[C@@H](CCC(N)=O)C(=O)N[C@@H](Cc1c[nH]c2ccccc12)C(=O)N[C@@H](C)C(=O)N[C@H](C(=O)NC(C)(C)C(=O)N[C@@H](Cc1c[nH]cn1)C(=O)N[C@@H](CC(C)C)C(N)=O)C(C)C [SEQ ID: 11] (Butyryl-[dF]QWAV[Aib]HL-NH2)
-- reply 34.6

-- ask What does the data say about its Percentage cytotoxicity? Entry: CCC(CC)(NC(=O)[C@H](Cc1c[nH]c2ccccc12)NC(=O)[C@H](CCC(N)=O)NC(=O)[C@H](N)Cc1ccccc1)C(=O)N[C@H](C(=O)NCC(=O)N[C@@H](Cc1c[nH]cn1)C(=O)N[C@@H](CC(C)C)C(N)=O)C(C)C [SEQ ID: 9, D-Phe-Gln-Trp-Deg-Val-Gly-His-Leu-NH2] (H-[dF]QW[Deg]VGHL-NH2; N-terminus assumed)
-- reply 28.5

-- ask So what's the measured Percentage cytotoxicity for this one? CC(C)C[C@H](NC(=O)[C@H](Cc1c[nH]cn1)NC(=O)C1(NC(=O)[C@@H](NC(=O)[C@H](C)NC(=O)[C@H](Cc2c[nH]c3ccccc23)NC(=O)[C@H](CCC(N)=O)NC(=O)[C@H](N)Cc2ccccc2)C(C)C)CCCC1)C(N)=O [SEQ ID: 10, D-Phe-Gln-Trp-Ala-Val-Ac5c-His-Leu-NH2] (H-[dF]QWAV[Ac5c]HL-NH2; N-terminus assumed)
-- reply 27.5

-- ask Dear colleague, I am looking for the recorded Percentage cytotoxicity of the following compound: CCCCCCCC(=O)N[C@H](Cc1ccccc1)C(=O)N[C@@H](CCC(N)=O)C(=O)N[C@@H](Cc1c[nH]c2ccccc12)C(=O)N[C@@H](C)C(=O)N[C@H](C(=O)NC(C)(C)C(=O)N[C@@H](Cc1c[nH]cn1)C(=O)N[C@@H](CC(C)C)C(N)=O)C(C)C [SEQ ID: 12] (Octanoyl-[dF]QWAV[Aib]HL-NH2)
-- reply 29.2

Ref: patent US6989371B1
